These measurements were taken from a protein production outcome set (Wang et al. 2014).

- Method notes: label from the status in PepcDB records
Observable: protein production

Chain | Result
MWNLETDRVIKEIEKSNGKNIVFHAPEGLKLAVEKEIEKINDYFNSTKNLIMWGAPCYGACDLCDHELKYNNIDLIIHYGHEELPYAKPDIPTIFIHCYYIYDEIEQNNILNKIDEYLQNNPNTIITTTIQFKELLKKYNPNIILGCRANISNKPKSELEQGTEKETENSKILYIGTGRFHPLMLCYKFKKSVNLFNPTSKEFSAISEEEVNKFIKKRIGAISKLLINPPKKIGVVLSTKKGQNRINVYNKIINLLKDNNIEYMPIILNNASPDNLFYDVSAYIICACPRIVLDDYLNYNKTLLTPKEFEMYIKKDFEYVFDEILFDDFEP | failed
MNQTSSHSSLFSSSLPPVPDRPLSPSGRFNRLSYLAWYGFINLIGLMCLFGTGLIMGIFSLSQVTWDDQLLNALSGSFGFIMFGISILFFYFHVVLMIRRLHDTNRSGWWCLLFFVPVIQFILILYLLFIPGSKASNDYGIPRPSPVWEKILGWMIVIVLLLSLLMLGRLVSFMLGTGHLDFPQELIPKNTGYF | failed
MPATPSLKVVHELPACTLCAGPLEDAVTVPCGHTFCRLCLPALSQMGAQSSGKILLCPLCQEEEQAETPMAPVPLGPLGETYCEEHGEKIYFFCENDAEFLCTSECRTTDGFGCA | failed
